Values compiled from patent US20240174690A1.

Biological target: KRAS (G12C)::SOS1 (Homo sapiens (Human), UniProt P01116, C118S/C51S/C80L/G12C)
Sequence (P01116 other isoform, or with tags, fused parts or gaps G12C/C51S/C80L/C118S): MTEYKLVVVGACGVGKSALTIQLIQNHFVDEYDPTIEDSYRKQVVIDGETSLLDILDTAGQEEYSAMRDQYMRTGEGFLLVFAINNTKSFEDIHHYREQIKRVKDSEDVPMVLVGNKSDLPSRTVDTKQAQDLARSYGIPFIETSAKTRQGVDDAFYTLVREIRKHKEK
Test: KRAS::SOS1 AlphaScreen binding assay, KRAS G12C
Each record here notes measured pIC50.
Scale for pIC50: -log10 of concentration given in mol/L; no unit attached.

Some solved cases for reference:
C[C@H](Oc1cc(-c2cncnc2)nc(-c2noc3c2CCC[C@@]32CCCc3sc(N)c(C#N)c32)n1)[C@@H]1CCCN1C; 8.52
Cc1ccc(-c2cc(O[C@@H](C)[C@@H]3CCCN3C)nc(-c3onc4c3CCC[C@@]43CCCc4sc(N)c(C#N)c43)n2)cn1; 8.52
CC(C)N1CCCN(c2cc(-c3ccn(C)n3)nc(-c3noc4c3CCC[C@@]43CCCc4sc(N)c(C#N)c43)n2)[C@@H](C)C1; 8.52
CNC(=O)c1cn(-c2cc(O[C@@H](C)[C@@H]3CCCN3C)nc(-c3noc4c3CCC[C@@]43CCCc4sc(N)c(C#N)c43)n2)nn1; 8.70
C[C@H](Oc1cc(-n2nccn2)nc(-c2onc3c2CCC[C@@]32CCCc3sc(N)c(C#N)c32)n1)[C@@H]1CCCN1C; 8.52

State the recorded pIC50 for this entry: `C[C@H](Oc1cc(-n2ccnc2)nc(-c2onc3c2CCC[C@@]32CCCc3sc(N)c(C#N)c32)n1)[C@@H]1CCCN1C`
8.70

Record: `C[C@H](Oc1cc(C2CCOCC2)nc(-c2noc3c2CCC[C@@]32CCCc3sc(N)c(C#N)c32)n1)[C@@H]1CCCN1C`
8.70

----------
Target: KRAS (G12V)::SOS1 (Homo sapiens (Human), UniProt P01116, C118S/G12V)
Sequence (P01116 other isoform, or with tags, fused parts or gaps G12V/C118S): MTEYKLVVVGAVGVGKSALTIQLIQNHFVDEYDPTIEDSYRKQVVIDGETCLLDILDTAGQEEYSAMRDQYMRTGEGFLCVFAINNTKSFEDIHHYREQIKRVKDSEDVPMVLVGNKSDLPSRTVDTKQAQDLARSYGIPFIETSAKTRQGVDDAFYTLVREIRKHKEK
Assay: KRAS::SOS1 AlphaScreen binding assay, KRAS G12V
value kind: log10 IC50 (log10 of the value in nM)
Recorded IC50 (log10, nM)

CNC(=O)c1ccn(-c2cc(O[C@@H](C)[C@@H]3CCCN3C)nc(-c3noc4c3CCC[C@@]43CCCc4sc(N)c(C#N)c43)n2)n1 [II-20]; 0.30

State the recorded log10 IC50 for this entry: C[C@H](Oc1cc(-n2ccc(C(=O)NC3(C)COC3)n2)nc(-c2noc3c2CCC[C@@]32CCCc3sc(N)c(C#N)c32)n1)[C@@H]1CCCN1C [II-26]
0.30

Record: COCCNC(=O)c1ccn(-c2cc(O[C@@H](C)[C@@H]3CCCN3C)nc(-c3noc4c3CCC[C@@]43CCCc4sc(N)c(C#N)c43)n2)n1 [II-195]
0.00

Record: C[C@H](Oc1cc(-c2ccn(C)n2)nc(-c2noc3c2CCC[C@@]32CCCc3sc(N)c(C#N)c32)n1)[C@@H]1CCCN1C [II-96]
0.30

Record: C[C@H](Oc1cc(N2C[C@H](C)N(C)[C@@H](C)C2)nc(-c2onc3c2CCC[C@@]32CCCc3sc(N)c(C#N)c32)n1)[C@@H]1CCCN1C [I-43]
0.90

Record: C[C@H](Oc1cc(-n2cncc3ccnc2-3)nc(-c2noc3c2CCC[C@@]32CCCc3sc(N)c(C#N)c32)n1)[C@@H]1CCCN1C [II-105]
0.30

----------
Tested on: SAS cells
Test: SAS CTG proliferation assay (120 h) (HNSCC, wt amplified)
Type: cell-based
Each record here notes measured IC50.
Write the value in nM as a bare number.

Some solved cases for reference:
C[C@@H]1CN(c2nc(-c3noc4c3CCC[C@@]43CCCc4sc(N)c(C#N)c43)nc(O[C@@H](C)[C@@H]3C[C@@H](F)CN3C)c2F)CC2(CC2)N1; 585
C[C@H](Oc1cc(-n2ccc(C(=O)N[C@H]3CCOC3)n2)nc(-c2noc3c2CCC[C@@]32CCCc3sc(N)c(C#N)c32)n1)[C@@H]1CCCN1C; 10

State the recorded IC50 for this entry: `C[C@H](Oc1cc(-n2cc(C3CC3)nn2)nc(-c2noc3c2CCC[C@@]32CCCc3sc(N)c(C#N)c32)n1)[C@@H]1CCCN1C`
931
